# Lookup of reported RP-LC retention time keyed by entry
Assay: gradient 5% acetonitrile 3 min, to 50% in 2 min, to 85% in 15 min, held 3 min, 100 µL/min
Conditions: column: Zorbax Extend-C18 2.1 x 50 mm; eluents: water / acetonitrile, 0.1% formic acid

# molecule, RP-LC retention time
rows = [
    ("Cc1noc2nc(C)n(CC(=O)Nc3ccc(F)cc3)c(=O)c12", "765 s"),
    ("CCc1ccc(CNC(=O)C2Cc3cc(S(=O)(=O)N4CCCCC4)ccc3N2C(C)=O)cc1 (centres undefined)", "983 s"),
    ("CCOC(=O)c1cccc(Nc2ncccc2S(=O)(=O)NC)c1", "622 s"),
    ("CCC(C)NC(=O)c1ccc2c(ccn2C)c1 (centres undefined)", "779 s"),
    ("CCCc1ccc(S(=O)(=O)N2CCC3(CC2)NCCN=C3NCc2ccc(OC)cc2)cc1", "826 s"),
    ("CC(C)(C)NCC(O)COc1nsnc1N1CCOCC1 (centres undefined)", "626 s"),
    ("Cn1nccc1-c1csc(S(=O)(=O)NC2CCCCC2)c1", "877 s"),
    ("Cc1cc2c(c(=O)n(-c3ccccc3)c(=O)n2CC(=O)Nc2ccc(Cl)cc2F)n1C", "873 s"),
    ("CCOC(=O)c1c(C)oc2nc(C)nc(NCCN3CCN(c4ccc(OC)cc4)CC3)c12", "732 s"),
    ("COc1ccccc1-c1noc(CCn2nc(-c3ccc(F)cc3)ccc2=O)n1", "863 s"),
    ("Cc1cc(C)n(-c2cc(NCCNC(=O)c3ccc(Br)o3)ncn2)n1", "718 s"),
    ("CCN(Cc1ccccc1)C(=O)Cn1nc2c(N3CCC(C)CC3)nccn2c1=O", "861 s"),
    ("CC(NC(=O)c1ccc(Oc2nccnc2N2CCSCC2)cc1)c1ccc(F)cc1 (centres undefined)", "965 s"),
    ("COc1ccccc1N1CCN(C(=O)c2nnc(-c3ccc(S(=O)(=O)N4CCCC4)cc3)o2)CC1", "972 s"),
    ("O=c1n(Cc2ccc(Cl)cc2)nc2ccc(S(=O)(=O)N3CCCCCC3)cn12", "1020 s"),
    ("Cc1sc(C)c(S(=O)(=O)NCCc2ccccc2)c1-c1cc(C(F)(F)F)on1", "1180 s"),
    ("O=C(Nc1cccc(OCc2nnc(-c3ccccc3)o2)c1)c1cncc(Br)c1", "912 s"),
    ("Cc1cc(Cl)ccc1NC(=O)N1CCCC1c1nncn1-c1ccccc1 (centres undefined)", "724 s"),
    ("Cc1nn(C)c(C)c1S(=O)(=O)N1CCC2(CC1)c1[nH]c3ccccc3c1CCN2C", "668 s"),
]

----------
Experiment: gradient 5% acetonitrile 3 min, to 50% in 2 min, to 85% in 15 min, held 3 min, 100 µL/min
Conditions: column: Zorbax Extend-C18 2.1 x 50 mm; eluents: water / acetonitrile, 0.1% formic acid

# compound, value_unit, RP-LC retention time
records = [
    ("Cc1cccc(S(=O)(=O)N2CCN(c3nc4ccncc4n(CC(C)C)c3=O)CC2)c1", "s", 778),
    ("COc1ccc(NC(=O)N2C[C@@H]3C[C@H]2C[C@@H]3NS(=O)(=O)c2ccccc2)c(C)c1", "s", 764),
    ("Cn1ncc2c3ccccc3n(CC(=O)N3CCN(c4ccc(F)cc4)CC3)c2c1=O", "s", 875),
    ("Cc1ccc(NC(=O)CCCn2cccc2)cc1F", "s", 874),
    ("O=C(CCc1csc(NC(=O)c2ccc(F)cc2)n1)NCc1nc2ccccc2[nH]1", "s", 577),
    ("O=C(NC1CCCCCC1)c1ccc(-c2ccsc2)nc1", "s", 943),
    ("O=C(CCC(=O)N1CCN(c2ccc(=O)n(-c3ccccc3)n2)CC1)N1CCOCC1", "s", 612),
    ("COc1ncc(C(=O)NCc2ccc(C(F)(F)F)cc2)cn1", "s", 773),
    ("O=C(c1cccnn1)N1CC(F)(F)C[C@H]1c1nnc(-c2ccccc2)o1", "s", 746),
    ("Cc1nn(-c2ccccc2)c(C)c1N1CCN(S(=O)(=O)c2c(C)noc2C)CC1", "s", 952),
    ("CSc1ccc(NC(=O)C2CCN(C(=O)c3ncn4c3COC(c3ccc(F)cc3)C4)CC2)cc1 (centres undefined)", "s", 864),
    ("COc1ccc(CCNC(=O)CSC2=Nc3ccc(C)cc3OC2)cc1OC", "s", 750),
    ("CC1CCN(c2cc(-n3cnc(C(=O)N4CCCCCC4)c3)ncn2)CC1", "s", 1010),
    ("COc1ccc(NC(=O)C2=C(C)NC(=O)NC2c2ccccc2Br)c(OC)c1 (centres undefined)", "s", 698),
    ("Cc1noc(C)c1CC(=O)N1CCN(c2ncnc3c2CCC3)CC1", "s", 559),
    ("COc1ccc2c(n1)Sc1nc3ccccc3nc1N2", "s", 1040),
    ("O=C(c1ccsc1)N1CC(n2cc(C(=O)N3CCOCC3)nn2)C1", "s", 609),
    ("O=C(Nc1ccc(OCC(=O)N2CCN(c3ccccn3)CC2)nc1)C1CC1", "s", 580),
    ("Cc1ccc(-c2noc(Cn3nc(-c4ccccc4F)ccc3=O)n2)cc1", "s", 1050),
    ("O=C(Nc1cccc(C(F)(F)F)c1)N1CCC(N2C[C@H]3C[C@H](C2)[C@H]2CCCC(=O)N2C3)CC1", "s", 653),
    ("Cn1cc(S(=O)(=O)Nc2ccc(F)cc2Cl)c2cccnc21", "s", 814),
    ("CC(C)NC(=O)c1ccc(OCC2CCN(C(=O)c3c(F)cccc3F)CC2)cc1", "s", 862),
    ("Cc1nc(-c2ccccc2)sc1CC(=O)NCCC1=CCCCC1", "s", 947),
    ("CC(CNC(=O)C1CCCN1S(=O)(=O)c1cc2c(cc1Cl)NC(=O)CO2)c1ccccc1 (centres undefined)", "s", 834),
    ("CC(=O)OC[C@@]1(O)C[C@@]23CC[C@@H]4c5ccoc5C=C[C@@]4(C)[C@@H]2CC[C@@H]1C3", "s", 715),
    ("COC(=O)CCNC(=O)c1cc2c(=O)n(CC(C)C)c3ccccc3n2n1", "s", 828),
    ("COCCN1C(=O)c2ccccc2C(C(=O)Nc2ccccc2OC)C12CCCC2 (centres undefined)", "s", 905),
    ("Cc1nn(CC(=O)NCc2cccnc2)c(=O)c2nc(-c3ccccc3)sc12", "s", 614),
    ("CC(=O)Nc1ccc(-n2cnc(C(=O)N3CCN(c4cccc(Cl)c4)CC3)c2)nc1", "s", 749),
    ("CCCn1nc2n(c1=O)CCN(Cc1cn[nH]c1-c1ccc(OCC)c(Cl)c1)C2", "s", 708),
    ("CCOC(=O)C1CCN(c2nc(-c3ccc(Cl)cc3)nc3ccccc23)CC1", "s", 936),
    ("CCCN(C)C[C@@H]1CC(F)(F)CN1C1CCN(S(=O)(=O)c2ccc(C)cc2C)CC1", "s", 788),
    ("CCc1ccccc1NC(=O)c1ncn2c1C(=O)N(C1CC1)C(C)(C(=O)NC1CCCC1)C2 (centres undefined)", "s", 828),
    ("CCOc1ccccc1NC(=O)C1(C)Oc2cccnc2N(C)C1=O (centres undefined)", "s", 929),
    ("O=C(CSc1nnc(CCN2CCOCC2)o1)Nc1ccc(F)c(Cl)c1", "s", 571),
    ("Cc1noc(C)c1C1CCCN1C(=O)c1ccnn1C (centres undefined)", "s", 638),
    ("CSc1ccccc1C(=O)NCC1(c2ccc(F)cc2)CC1", "s", 875),
    ("O=C(Cn1ccc2sccc2c1=O)Nc1ccc(Br)cc1F", "s", 832),
    ("CCc1cccc(NC(=O)Nc2ccc3nncn3c2)c1", "s", 747),
]
